# STUDY SYSTEM: Gal3S(b1-4)GlcNAc
# EXPERIMENTAL DETAILS: glycan array binding signal (z-score within array); higher = stronger binding
# MEASUREMENT PARAMETERS: glycan notation: IUPAC condensed, linker removed
Many of the other results were omitted from the sample, so the strongest signals are more common in it than they were.
Each item that follows carries a reported glycan array binding signal (z-score).
READOUT TYPE: glycan array binding signal (z-score)

>>> numeric_readout("GALT1 615 (Arabidopsis thaliana), Q8L7F9 (protein) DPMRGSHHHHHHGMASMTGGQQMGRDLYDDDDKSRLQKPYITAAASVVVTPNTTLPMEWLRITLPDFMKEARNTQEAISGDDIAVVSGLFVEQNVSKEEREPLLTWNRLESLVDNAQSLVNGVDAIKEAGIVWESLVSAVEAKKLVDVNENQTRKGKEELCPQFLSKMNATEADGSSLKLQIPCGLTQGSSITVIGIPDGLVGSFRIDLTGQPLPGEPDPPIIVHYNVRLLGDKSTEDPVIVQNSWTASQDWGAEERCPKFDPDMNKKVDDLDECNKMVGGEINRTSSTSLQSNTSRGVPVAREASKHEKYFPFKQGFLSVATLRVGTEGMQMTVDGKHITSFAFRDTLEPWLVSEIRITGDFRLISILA")
-0.208
>>> numeric_readout("HPAIIITrx (Helix pomatia), Q1KM18 (protein) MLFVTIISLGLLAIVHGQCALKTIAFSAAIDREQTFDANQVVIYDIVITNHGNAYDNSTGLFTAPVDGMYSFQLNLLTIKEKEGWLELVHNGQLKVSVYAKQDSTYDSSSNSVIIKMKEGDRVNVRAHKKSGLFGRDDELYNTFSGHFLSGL")
-0.024
>>> numeric_readout("EEA (Euonymus europaeus) (protein) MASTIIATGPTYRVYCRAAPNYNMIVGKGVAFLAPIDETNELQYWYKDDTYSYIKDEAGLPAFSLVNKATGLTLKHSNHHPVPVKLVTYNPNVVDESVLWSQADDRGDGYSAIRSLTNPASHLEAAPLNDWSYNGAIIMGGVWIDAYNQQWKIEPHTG")
-0.217
>>> numeric_readout("EUL D1A second (Oryza sativa) (protein) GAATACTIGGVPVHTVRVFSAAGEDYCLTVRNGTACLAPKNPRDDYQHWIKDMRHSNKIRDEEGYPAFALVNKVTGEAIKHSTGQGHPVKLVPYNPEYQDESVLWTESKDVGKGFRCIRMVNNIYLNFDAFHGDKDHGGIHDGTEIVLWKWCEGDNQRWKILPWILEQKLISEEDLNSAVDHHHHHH")
0.255
>>> numeric_readout("LysMD3 (Homo sapiens), Q7Z3D4 (protein) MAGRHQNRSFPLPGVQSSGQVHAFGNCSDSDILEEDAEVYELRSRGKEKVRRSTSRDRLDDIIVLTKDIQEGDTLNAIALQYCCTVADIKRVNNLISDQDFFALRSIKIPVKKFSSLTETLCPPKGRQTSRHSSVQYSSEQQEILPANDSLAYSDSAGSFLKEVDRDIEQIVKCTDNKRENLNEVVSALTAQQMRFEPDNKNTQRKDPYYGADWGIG")
-0.699
